assay: Bidirectional transport across MDCK monolayers in conventional 2D Transwell; format: in vitro ADME; conditions: dog, Inhibitor (-), 1.5 hour incubation, read-out: Papp Apical to Basal
endpoint_label: Papp A→B at 1.5 h, 1 µM (×10⁻⁶ cm/s)

1) CN1CC[C@]23c4c5ccc(O)c4O[C@H]2[C@@H](O[C@@H]2O[C@H](C(=O)O)[C@@H](O)[C@H](O)[C@H]2O)C=C[C@H]3[C@H]1C5 [M6G, morphine-6-glucuronide] = 3.86

----------
assay: Bidirectional transport across PTECs monolayers in conventional 2D Transwell; assay type: in vitro ADME, human; conditions: human, Donor3; PTECs permeability study data used for CLr prediction
endpoint_label: Papp at 1.5 h, 1 µM (×10⁻⁶ cm/s)

1) CN1CC[C@]23c4c5ccc(O)c4O[C@H]2[C@@H](O[C@@H]2O[C@H](C(=O)O)[C@@H](O)[C@H](O)[C@H]2O)C=C[C@H]3[C@H]1C5 [M6G, morphine-6-glucuronide] = 40.1

----------
assay: Bidirectional transport across PTECs monolayers in conventional 2D Transwell; format: in vitro ADME, human; conditions: human, Inhibitor (-); Donor5; 1.5 hour incubation; read-out: Papp Apical to Basal
endpoint_label: Papp A→B at 1.5 h, 1 µM (×10⁻⁶ cm/s)

1. CN1CC[C@]23c4c5ccc(O)c4O[C@H]2[C@@H](O[C@@H]2O[C@H](C(=O)O)[C@@H](O)[C@H](O)[C@H]2O)C=C[C@H]3[C@H]1C5 [M6G, morphine-6-glucuronide] = 28.6

----------
assay: Bidirectional transport across PTECs monolayers in conventional 2D Transwell; type: in vitro ADME, human; conditions: human, Donor6; PTECs permeability study data used for CLr prediction
endpoint_label: Papp at 1.5 h, 1 µM (×10⁻⁶ cm/s)

1. CN1CC[C@]23c4c5ccc(O)c4O[C@H]2[C@@H](O[C@@H]2O[C@H](C(=O)O)[C@@H](O)[C@H](O)[C@H]2O)C=C[C@H]3[C@H]1C5 [M6G, morphine-6-glucuronide] = 40.1

----------
assay: Bidirectional transport across PTECs monolayers in conventional 2D Transwell; format: in vitro ADME, human; conditions: human, Inhibitor (-); Donor4; 1.5 hour incubation; read-out: Papp Apical to Basal
endpoint_label: Papp A→B at 1.5 h, 1 µM (×10⁻⁶ cm/s)

1. CN1CC[C@]23c4c5ccc(O)c4O[C@H]2[C@@H](O[C@@H]2O[C@H](C(=O)O)[C@@H](O)[C@H](O)[C@H]2O)C=C[C@H]3[C@H]1C5 [M6G, morphine-6-glucuronide] = 22.5

----------
test system: PTECs monolayers; assay: Bidirectional transport across PTECs monolayers in conventional 2D Transwell; format: in vitro ADME, human; details: Inhibitor (-); Donor2; 1.5 hour incubation; read-out: Papp Basal to Apical
endpoint_label: Papp B→A (×10⁻⁶ cm/s)

1. Nc1ccc(C(=O)NCC(=O)O)cc1 [[^3H] PAH, para-aminohippuric acid, reference compound] = 69.6

----------
assay: Bidirectional transport across MDCK monolayers in conventional 2D Transwell; type: in vitro ADME; conditions: dog, Inhibitor (-), 1.5 hour incubation, read-out: Papp Basal to Apical
endpoint_label: Papp B→A at 1.5 h, 1 µM

1. CN1CC[C@]23c4c5ccc(O)c4O[C@H]2[C@@H](O[C@@H]2O[C@H](C(=O)O)[C@@H](O)[C@H](O)[C@H]2O)C=C[C@H]3[C@H]1C5 [M6G, morphine-6-glucuronide] = 1.53 ×10⁻⁶ cm/s

----------
assay: Bidirectional transport across PTECs monolayers in conventional 2D Transwell; assay type: in vitro ADME, human; settings: human, Inhibitor (-); Donor2; 1.5 hour incubation; read-out: Papp Apical to Basal
endpoint_label: Papp A→B at 1.5 h, 1 µM (×10⁻⁶ cm/s)

1) CN1CC[C@]23c4c5ccc(O)c4O[C@H]2[C@@H](O[C@@H]2O[C@H](C(=O)O)[C@@H](O)[C@H](O)[C@H]2O)C=C[C@H]3[C@H]1C5 [M6G, morphine-6-glucuronide] = 58

----------
assay: Transport of morphine and M6G in the vascularized proximal tubule MPS (VPT-MPS); type: in vitro ADME, human; details: human, with probenecid (1 mM) and tetraethylammonium (1 mM), Donor1; VPT-MPS; read-out: Permeability
endpoint_label: Papp at 24 h, 1 µM (×10⁻⁶ cm/s)

1) CN1CC[C@]23c4c5ccc(O)c4O[C@H]2[C@@H](O[C@@H]2O[C@H](C(=O)O)[C@@H](O)[C@H](O)[C@H]2O)C=C[C@H]3[C@H]1C5 [M6G, morphine-6-glucuronide] = 25.9

----------
tested on: PTECs monolayers; experiment: Bidirectional transport across PTECs monolayers in conventional 2D Transwell; format: in vitro ADME, human; conditions: Inhibitor (-); Donor6; 1.5 hour incubation; read-out: Papp Basal to Apical
endpoint_label: Papp B→A (×10⁻⁶ cm/s)

1. Nc1ccc(C(=O)NCC(=O)O)cc1 [[^3H] PAH, para-aminohippuric acid, reference compound] = 67.3

----------
test: Bidirectional transport across PTECs monolayers in conventional 2D Transwell; type: in vitro ADME, human; conditions: human, Inhibitor (-); Donor6; 1.5 hour incubation; read-out: Papp Apical to Basal
endpoint_label: Papp A→B at 1.5 h, 1 µM (nm/s)

1. CN1CC[C@]23c4c5ccc(O)c4O[C@H]2[C@@H](O[C@@H]2O[C@H](C(=O)O)[C@@H](O)[C@H](O)[C@H]2O)C=C[C@H]3[C@H]1C5 [M6G, morphine-6-glucuronide] = 556

----------
Experiment: Bidirectional transport across PTECs monolayers in conventional 2D Transwell
Format: in vitro ADME, human
Details: human, Inhibitor (-); Donor6; 1.5 hour incubation; read-out: Papp Basal to Apical
Method: PTECs were seeded on polyester membrane HTS 24-well Transwell^TM inserts at 0.5-1 ×10^5 cells/well and cultured for 7-10 days until confluency. Transepithelial electrical resistance (TEER) across PTECs monolayers was monitored by an EVOM meter from World Precision Instruments (Berlin, Germany). TEER values were normalized to culture surface areas of Transwell^TM inserts. Wells with TEER reading from 25-150 ohm∙cm^2 were used for experiments. […]
endpoint_label: Papp B→A at 1.5 h, 1 µM (×10⁻⁶ cm/s)

1) CN1CC[C@]23c4c5ccc(O)c4O[C@H]2[C@@H](O[C@@H]2O[C@H](C(=O)O)[C@@H](O)[C@H](O)[C@H]2O)C=C[C@H]3[C@H]1C5 [M6G, morphine-6-glucuronide] = 42.2

----------
Assay: Transport of morphine and M6G in the vascularized proximal tubule MPS (VPT-MPS)
Type: in vitro ADME, human
Settings: human, with probenecid (1 mM) and tetraethylammonium (1 mM), Donor3; VPT-MPS; read-out: Permeability
Protocol: The inner chamber of dual-channel MPS devices (Duplo, Fig. 1) (https://www.nortisbio.com/) was dried, filled with 6 mg/mL of rat tail collagen I, and left overnight to allow the collagen I matrix to solidify. The mandrels of the MPS platforms were then removed, leaving two hollow channels through the collagen I matrix. […] The cells were counted and resuspended with PTECs culture media at a concentration of 20 × 10^6 cells/mL and 2–2.5 µL were injected into the collagen IV-coated channel. […]
endpoint_label: Papp at 24 h, 1 µM (×10⁻⁶ cm/s)

1. CN1CC[C@]23c4c5ccc(O)c4O[C@H]2[C@@H](O[C@@H]2O[C@H](C(=O)O)[C@@H](O)[C@H](O)[C@H]2O)C=C[C@H]3[C@H]1C5 [M6G, morphine-6-glucuronide] = 41.8

----------
test: Bidirectional transport across PTECs monolayers in conventional 2D Transwell; type: in vitro ADME, human; conditions: human, Inhibitor (-); Donor4; 1.5 hour incubation; read-out: Papp Basal to Apical
endpoint_label: Papp B→A at 1.5 h, 1 µM (×10⁻⁶ cm/s)

1) CN1CC[C@]23c4c5ccc(O)c4O[C@H]2[C@@H](O[C@@H]2O[C@H](C(=O)O)[C@@H](O)[C@H](O)[C@H]2O)C=C[C@H]3[C@H]1C5 [M6G, morphine-6-glucuronide] = 12.2

----------
tested on: PTECs monolayers; test: Bidirectional transport across PTECs monolayers in conventional 2D Transwell; type: in vitro ADME, human; settings: Inhibitor (-); Donor3; 1.5 hour incubation; read-out: Papp Basal to Apical
endpoint_label: Papp B→A (×10⁻⁶ cm/s)

1. Nc1ccc(C(=O)NCC(=O)O)cc1 [[^3H] PAH, para-aminohippuric acid, reference compound] = 23

----------
experiment: Bidirectional transport across PTECs monolayers in conventional 2D Transwell; format: in vitro ADME, human; conditions: human, Inhibitor (-); Donor3; 1.5 hour incubation; read-out: Papp Basal to Apical
endpoint_label: Papp B→A at 1.5 h, 1 µM (nm/s)

1. CN1CC[C@]23c4c5ccc(O)c4O[C@H]2[C@@H](O[C@@H]2O[C@H](C(=O)O)[C@@H](O)[C@H](O)[C@H]2O)C=C[C@H]3[C@H]1C5 [M6G, morphine-6-glucuronide] = 249
